Experiment: Biodistribution studies of 11C tracers
Type: in vivo, Wistar rats
Details: 60 min p.i., normalized for body weight
Protocol: Biodistribution studies were carried out in healthy male Wistar rats (body weight 200-450 g) at 2 min, 30 min and 60 min post injection (p.i.) (n=3/time point). […] The radioactivity in blood, organs and other body parts was measured using an automated gamma counter. […] For calculation of total radioactivity in blood, blood mass was assumed to be 7% of the body mass.
Measured SUV Cerebellum values are reported for all entries that follow.
reported.property: SUV Cerebellum

1) [11CH3]Oc1c(F)ccc(F)c1C1CCN(c2ccn3c(CC4CC4)nnc3c2Cl)CC1 [[^11C]B-2]	1.75
2) [11CH3]Oc1cccc(F)c1C1CCN(c2ccn3c(CC4CC4)nnc3c2Cl)CC1 [[^11C]B-6]	1.57
3) [11CH3]Oc1ccc(F)c(F)c1C1CCN(c2ccn3c(CC4CC4)nnc3c2Cl)CC1 [[^11C]B-10]	1.52
4) [11CH3]Oc1c(F)ccc(F)c1C1CCN(c2ccn3c(CC4CC4)nnc3c2C(F)(F)F)CC1 [[^11C]B-3]	1.84
5) [11CH3]Oc1ccc(F)cc1C1CCN(c2ccn3c(CC4CC4)nnc3c2Cl)CC1 [[^11C]B-4]	1.68
6) [11CH3]Oc1cc(F)cc(F)c1C1CCN(c2ccn3c(CC4CC4)nnc3c2Cl)CC1 [[^11C]B-7]	1.50

Hello, the source for this data is patent US20130230459A1, in case you need it.
